Species on record: Rattus norvegicus
Experiment: Open TG-GATES - Regimen: Daily Repeat
Assay type: toxicity, organism-based, Sprague-Dawley
Parameters: regimen Daily Repeat, gender Male, age 6 weeks
Conditions: in vivo, po, 1000 mg/kg, 72 h, tissue Blood, route gavage, dose level High, time 3 day
Each record here notes measured Eos.
State just the number; it will be interpreted in %.

Answered cases to consult:
{"columns": ["smiles_input", "endpoint", "value_observed"],
 "data": [
  ["O=C(OC[C@H]1O[C@@H](OC(=O)c2cc(O)c(O)c(OC(=O)c3cc(O)c(O)c(O)c3)c2)[C@H](OC(=O)c2cc(O)c(O)c(OC(=O)c3cc(O)c(O)c(O)c3)c2)[C@@H](OC(=O)c2cc(O)c(O)c(OC(=O)c3cc(O)c(O)c(O)c3)c2)[C@@H]1OC(=O)c1cc(O)c(O)c(OC(=O)c2cc(O)c(O)c(O)c2)c1)c1cc(O)c(O)c(OC(=O)c2cc(O)c(O)c(O)c2)c1", "Eos", 1.4],
  ["Cc1nnc2n1-c1ccc(Cl)cc1C(c1ccccc1Cl)=NC2", "Eos", 1],
  ["CCOc1ccc(NC(C)=O)cc1", "Eos", 0.8]
]}

## Input Given the molecule CNC(=C[N+](=O)[O-])NCCSCc1ccc(CN(C)C)o1 , what is its reported Eos?
## Output 1

## Input Same for CN/C(=N/CCSCc1nc[nH]c1C)NC#N
## Output 1

## Input Same for COC(=O)C1=C(C)NC(C)=C(C(=O)OC)C1c1ccccc1[N+](=O)[O-]
## Output 0.8

---

Each record here notes measured Ca.
Organism: Rattus norvegicus
Experiment: Open TG-GATES - Regimen: Single
Type: toxicity, organism-based, Sprague-Dawley
Set-up: regimen Single, gender Male, age 6 weeks
Settings: in vivo, po, 1000 mg/kg, 3 h, tissue Plasma, route gavage, dose level High
State just the number; it will be interpreted in mg/dL.

Answered cases to consult:
{"columns": ["compound", "units_of_measure", "value_observed"],
 "data": [
  ["COC(=O)C1=C(C)NC(C)=C(C(=O)OC)C1c1ccccc1[N+](=O)[O-] [NIFEDIPINE]", "mg/dL", 11.8],
  ["O=C(OC[C@H]1O[C@@H](OC(=O)c2cc(O)c(O)c(OC(=O)c3cc(O)c(O)c(O)c3)c2)[C@H](OC(=O)c2cc(O)c(O)c(OC(=O)c3cc(O)c(O)c(O)c3)c2)[C@@H](OC(=O)c2cc(O)c(O)c(OC(=O)c3cc(O)c(O)c(O)c3)c2)[C@@H]1OC(=O)c1cc(O)c(O)c(OC(=O)c2cc(O)c(O)c(O)c2)c1)c1cc(O)c(O)c(OC(=O)c2cc(O)c(O)c(O)c2)c1 [TANNIC ACID]", "mg/dL", 10.8]
]}

## Input Given the compound CNC(=C[N+](=O)[O-])NCCSCc1ccc(CN(C)C)o1 [RANITIDINE] , what is its reported Ca?
## Output 10.5

## Input Same for Cc1nnc2n1-c1ccc(Cl)cc1C(c1ccccc1Cl)=NC2 [TRIAZOLAM]
## Output 11

## Input Same for CN/C(=N/CCSCc1nc[nH]c1C)NC#N [CIMETIDINE]
## Output 10.6

---

Species on record: Rattus norvegicus
Experiment: Open TG-GATES - Regimen: Single
Assay type: toxicity, organism-based, Sprague-Dawley
Set-up: regimen Single, gender Male, age 6 weeks
Settings: in vivo, po, 0 mg/kg, 6 h, tissue Blood, route gavage, dose level Control
Each record here notes measured APTT.
State just the number; it will be interpreted in s.

Answered cases to consult:
{"columns": ["compound", "value_observed"],
 "data": [
  ["Nc1c2c(nc3ccccc13)CCCC2", 21.4],
  ["COC(=O)C1=C(C)NC(C)=C(C(=O)OC)C1c1ccccc1[N+](=O)[O-]", 16.6],
  ["NC1=NC(=O)C(c2ccccc2)O1 (stereo not drawn)", 17.2]
]}

## Input Given the compound O=C(OC[C@H]1O[C@@H](OC(=O)c2cc(O)c(O)c(OC(=O)c3cc(O)c(O)c(O)c3)c2)[C@H](OC(=O)c2cc(O)c(O)c(OC(=O)c3cc(O)c(O)c(O)c3)c2)[C@@H](OC(=O)c2cc(O)c(O)c(OC(=O)c3cc(O)c(O)c(O)c3)c2)[C@@H]1OC(=O)c1cc(O)c(O)c(OC(=O)c2cc(O)c(O)c(O)c2)c1)c1cc(O)c(O)c(OC(=O)c2cc(O)c(O)c(O)c2)c1 , what is its reported APTT?
## Output 15.9

## Input Same for CCCc1cc(=O)[nH]c(=S)[nH]1
## Output 16.1

## Input Same for CNC(=C[N+](=O)[O-])NCCSCc1ccc(CN(C)C)o1
## Output 19.4

## Input Same for CN(C)CCC(c1ccc(Cl)cc1)c1ccccn1 (stereo not drawn)
## Output 17.5

## Input Same for Cc1nnc2n1-c1ccc(Cl)cc1C(c1ccccc1Cl)=NC2
## Output 17.3

## Input Same for CN1C(=O)CCS(=O)(=O)C1c1ccc(Cl)cc1 (stereo not drawn)
## Output 15.7

## Input Same for CC(C)NNC(=O)c1ccncc1
## Output 23.2

## Input Same for CCOc1ccc(NC(C)=O)cc1
## Output 18.2

## Input Same for Brc1ccccc1
## Output 15.7

## Input Same for CN/C(=N/CCSCc1nc[nH]c1C)NC#N
## Output 19.8
